# RUN_CONDITIONS: human, serum;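 further: human clinical chemistry: moderate when serum ALT or AST reaches 6× upper normal limit or alkaline phosphatase 1.7×, value counts indexed literature references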
*1 amine or outer side, *2 acyl side, *3 side chain or, on linkers, in order; H or OH if unused. Where a SMILES comes first, the peptide text is derived from it. Bridges are numbered along the chain shown (N, C = ends). Roman numbers before positions name the chains, in order. [ ]: non-standard residue; d: D form. Actinocin(9to1) = Cc1c2oc3c(C)ccc(C(=O)[*:1])c3nc-2c(C(=O)[*:2])c(N)c1=O; NMeV = CN[C@H](C(=O)O)C(C)C; Sar = CNCC(=O)O
Just so you know, the groups by Hepatotoxicity (moderate) go like this: bottom bin = under 1, middle bin = from 1 up to 3, top bin = 3 and over

Here are 5 molecules together with their reported answers.
| MOLECULE | CAT |
| --- | --- |
| C=COCC(F)(F)F [FLUROXENE] | middle bin |
| NS(=O)(=O)OCCCCCCCOS(N)(=O)=O | middle bin |
| CN(C)C/C=C(/c1ccc(Br)cc1)c1cccnc1 [ZIMELDINE] | top bin |
| CN1Cc2c(N)cccc2C(c2ccccc2)C1 (configuration not stated) [NOMIFENSINE] | top bin |
| O=C(O)c1ccccc1C(=O)Nc1ccc(S(=O)(=O)Nc2nccs2)cc1 [PHTHALYLSULFATHIAZOLE] | bottom bin |

Could you place CN1CCCN(C(c2ccccc2)c2ccc(Cl)cc2)CC1 (configuration not stated) [HOMOCHLORCYCLIZINE] in its proper category? Many thanks. bottom bin

Band for the recorded Hepatotoxicity (moderate) of Cc1c2oc3c(C)ccc(C(=O)N[C@@H]4C(=O)N[C@H](C(C)C)C(=O)N5CCC[C@H]5C(=O)N(C)CC(=O)N(C)[C@@H](C(C)C)C(=O)O[C@@H]4C)c3nc-2c(C(=O)N[C@@H]2C(=O)N[C@H](C(C)C)C(=O)N3CCC[C@H]3C(=O)N(C)CC(=O)N(C)[C@@H](C(C)C)C(=O)O[C@@H]2C)c(N)c1=O [DACTINOMYCIN] (I: T[dV]P[Sar][NMeV] / II: T[dV]P[Sar][NMeV]; ester I:1-I:C, II:1-II:C; linker I:N-II:N via Actinocin(9to1)) ? top bin

For C=C(CC)C(=O)c1ccc(OCC(=O)O)c(Cl)c1Cl [ETHACRYNIC ACID] , which Hepatotoxicity (moderate) bin applies? bottom bin

For the record CO[C@H]1/C=C/O[C@@]2(C)Oc3c(C)c(O)c4c(O)c(cc(O)c4c3C2=O)NC(=O)/C(C)=C\C=C\[C@H](C)[C@H](O)[C@@H](C)[C@@H](O)[C@@H](C)[C@H](OC(C)=O)[C@@H]1C [RIFAMYCIN] , report the class its Hepatotoxicity (moderate) corresponds to. top bin

Kindly state the category for this molecule: Cc1ccc(C)c(OCCCC(C)(C)C(=O)O)c1 [GEMFIBROZIL] top bin

Sort into band: c1ccc2[nH]c(-c3cscn3)nc2c1 [THIABENDAZOLE] middle bin

Data provenance is ChEMBL document CHEMBL3137667.
